# Assayed Target: Acetylcholinesterase (Homo sapiens)
# Sequence (P22303 whole entry): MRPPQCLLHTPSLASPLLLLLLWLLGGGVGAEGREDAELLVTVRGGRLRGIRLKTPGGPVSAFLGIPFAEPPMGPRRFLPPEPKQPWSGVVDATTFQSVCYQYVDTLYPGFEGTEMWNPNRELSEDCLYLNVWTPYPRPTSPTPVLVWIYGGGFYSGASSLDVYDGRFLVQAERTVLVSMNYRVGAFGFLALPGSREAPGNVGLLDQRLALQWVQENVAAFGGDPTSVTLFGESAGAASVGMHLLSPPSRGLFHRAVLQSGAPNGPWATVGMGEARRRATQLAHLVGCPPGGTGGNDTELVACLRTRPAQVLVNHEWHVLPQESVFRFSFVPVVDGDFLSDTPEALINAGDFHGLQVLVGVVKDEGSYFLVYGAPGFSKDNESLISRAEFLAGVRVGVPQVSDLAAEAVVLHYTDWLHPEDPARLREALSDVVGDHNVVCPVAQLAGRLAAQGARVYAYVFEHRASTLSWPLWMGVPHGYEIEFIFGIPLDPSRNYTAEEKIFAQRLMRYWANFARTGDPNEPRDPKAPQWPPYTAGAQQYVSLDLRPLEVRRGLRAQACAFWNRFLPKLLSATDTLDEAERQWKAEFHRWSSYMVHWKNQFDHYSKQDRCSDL
# Assay Info: Inhibition of recombinant human AChE using acetylthiocholine iodide as substrate preincubated for 5 mins followed by substrate addition measured after 5 mins by Ellman's method

>  <Chemical Structure>
CN(CCCCCN1C(=O)c2ccccc2S1(=O)=O)Cc1ccccc1

>  <Assayed Target>
Acetylcholinesterase (Homo sapiens)

>  <IC50 [µM]>
0.033

$$$$

* * *

# Assayed Target: Amine oxidase [flavin-containing] B (Homo sapiens)
# Sequence (P27338 whole entry): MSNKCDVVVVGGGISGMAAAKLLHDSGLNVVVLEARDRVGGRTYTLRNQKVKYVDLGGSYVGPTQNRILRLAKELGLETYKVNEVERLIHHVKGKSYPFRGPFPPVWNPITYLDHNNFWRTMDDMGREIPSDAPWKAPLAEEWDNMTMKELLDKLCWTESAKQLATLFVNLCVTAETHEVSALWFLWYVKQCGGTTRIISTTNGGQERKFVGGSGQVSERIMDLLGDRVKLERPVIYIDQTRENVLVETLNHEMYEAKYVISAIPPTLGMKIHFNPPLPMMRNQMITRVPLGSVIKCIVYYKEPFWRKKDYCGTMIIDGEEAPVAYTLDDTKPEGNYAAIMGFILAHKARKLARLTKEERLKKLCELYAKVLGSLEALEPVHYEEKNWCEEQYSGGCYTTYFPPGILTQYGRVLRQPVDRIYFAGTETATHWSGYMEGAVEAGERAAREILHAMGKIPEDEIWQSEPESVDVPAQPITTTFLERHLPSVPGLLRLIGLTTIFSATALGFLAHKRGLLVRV
# Assay Info: Inhibition of human MAOB
pIC50: −log10 of the molar value.
Endpoint Label: pIC50

>  <Chemical Structure>
O=C(NCCC1CCN(Cc2ccccc2)CC1)c1ccc(Cl)cn1

>  <Measured Value>
5.50

$$$$
